Attribute: drug sensitivity score
- System: CAF#5 (primary prostate cancer-associated fibroblasts of myCAF-like type)
- protocolSummary: drug sensitivity score (DSS2, normalised partial AUC of dose-response, 72 h CellTiter-Glo viability) (DSS (dimensionless)); higher = more sensitive (stronger growth inhibition / cytotoxicity); extreme values may be limits of the assay

# molecule, measurementTarget, drug sensitivity score
records = [
    ("Nc1ccn([C@@H]2O[C@H](CO)[C@@H](O)[C@@H]2O)c(=O)n1 [Cytarabine] (tested concentration range 1-10000 nM)", "CAF#5", 1.9),
    ("O=c1ncn2nc(Sc3ccc(F)cc3F)ccc2c1-c1c(Cl)cccc1Cl [Neflamapimod] (tested concentration range 1-10000 nM)", "CAF#5", 0),
    ("CCCCC(=O)OCC(=O)[C@]1(O)Cc2c(O)c3c(c(O)c2[C@@H](O[C@H]2C[C@H](NC(=O)C(F)(F)F)[C@H](O)[C@H](C)O2)C1)C(=O)c1c(OC)cccc1C3=O [Valrubicin] (tested concentration range 0.5-5000 nM)", "CAF#5", 8.4),
    ("C[C@]12C=CC(=O)C=C1CC[C@@H]1[C@@H]2[C@@H](O)C[C@@]2(C)[C@H]1CC[C@]2(O)C(=O)CO [Prednisolone] (tested concentration range 1-10000 nM)", "CAF#5", 0),
    ("C=CC(=O)Nc1cc(Nc2nccc(-c3cn(C)c4ccccc34)n2)c(OC)cc1N(C)CCN(C)C [Osimertinib] (tested concentration range 0.2-2500 nM)", "CAF#5", 4.8),
    ("C=CCc1cccc(/C=N/NC(=O)CN2CCN(Cc3ccccc3)CC2)c1O [PAC-1] (tested concentration range 1-10000 nM)", "CAF#5", 1.5),
    ("O=C(Nc1ccc(OC(F)(F)Cl)cc1)c1cnc(N2CC[C@@H](O)C2)c(-c2cc[nH]n2)c1 [Asciminib] (tested concentration range 0.1-1000 nM)", "CAF#5", 0),
    ("CN(C)C(=O)c1ccc(S(=O)(=O)c2ccc(NC(=O)[C@@](C)(O)C(F)(F)F)c(Cl)c2)cc1 [AZD7545] (tested concentration range 1-10000 nM)", "CAF#5", 0),
    ("CNC(=O)c1cccc(-c2ccc3c(N4CCOC[C@@H]4C)nc(N4CCOC[C@@H]4C)nc3n2)c1 [Vistusertib] (tested concentration range 1-10000 nM)", "CAF#5", 19.6),
    ("O=C(CCCCCCC(=O)Nc1ccc([C@H]2O[C@@H](CSc3nc(-c4ccccc4)c(-c4ccccc4)o3)C[C@@H](c3ccc(CO)cc3)O2)cc1)NO [Tubacin] (tested concentration range 1-10000 nM)", "CAF#5", 2.3),
    ("CNC(=O)[C@@H](NC(=O)[C@H](CC(C)C)[C@H](O)C(=O)NO)C(C)(C)C [Marimastat] (tested concentration range 1-10000 nM)", "CAF#5", 0),
    ("CCC/C=C/C=C/C(=O)O[C@H]1/C(=C/C(=O)OC)C[C@H]2C[C@H]([C@@H](C)O)OC(=O)C[C@H](O)C[C@@H]3C[C@H](OC(C)=O)C(C)(C)[C@](O)(C[C@@H]4C/C(=C/C(=O)OC)C[C@H](/C=C/C(C)(C)[C@]1(O)O2)O4)O3 [Bryostatin 1] (tested concentration range 0-100 nM)", "CAF#5", 3),
    ("CS(=O)(=O)N1CCN(Cc2cc3nc(-c4cccc5[nH]ncc45)nc(N4CCOCC4)c3s2)CC1 [Pictilisib] (tested concentration range 1-10000 nM)", "CAF#5", 12),
    ("COc1c(OCCCN2CCOCC2)ccc2c1N=C(NC(=O)c1cnc(N)nc1)N1CCN=C21 [Copanlisib] (tested concentration range 0.1-1000 nM)", "CAF#5", 9.9),
]

###

- Tested on: CAF#4 (primary prostate cancer-associated fibroblasts of iCAF-like type)
- protocolSummary: drug sensitivity score (DSS2, normalised partial AUC of dose-response, 72 h CellTiter-Glo viability) (DSS (dimensionless)); higher = more sensitive (stronger growth inhibition / cytotoxicity); extreme values may be limits of the assay

# compound, measurementTarget, drug sensitivity score
records = [
    ("COC(=O)c1ccc2c(c1)NC(=O)/C2=C(\\Nc1ccc(N(C)C(=O)CN2CCN(C)CC2)cc1)c1ccccc1 [Nintedanib] (tested concentration range 1-10000 nM)", "CAF#4", 7),
    ("COc1cc(N2CCC(N3CCN(C)CC3)CC2)ccc1Nc1ncc(Cl)c(Nc2ccccc2P(C)(C)=O)n1 [Brigatinib] (tested concentration range 0.1-1000 nM)", "CAF#4", 2.1),
    ("CC1(C)NC(=O)N(c2ccc([N+](=O)[O-])c(C(F)(F)F)c2)C1=O [Nilutamide] (tested concentration range 1-10000 nM)", "CAF#4", 2.7),
    ("C#Cc1cccc(Nc2ncnc3cc4c(cc23)OCCOCCOCCO4)c1 [Icotinib] (tested concentration range 1-10000 nM)", "CAF#4", 0),
    ("CCc1c(C(=O)C(N)=O)c2c(OCC(=O)O)cccc2n1Cc1ccccc1 [Varespladib] (tested concentration range 1-10000 nM)", "CAF#4", 0),
]

###

Collected drug sensitivity score values appear next to each entry.
- Test system: CAF#3 (primary prostate cancer-associated fibroblasts of myCAF-like type)
- protocolSummary: drug sensitivity score (DSS2, normalised partial AUC of dose-response, 72 h CellTiter-Glo viability) (DSS (dimensionless)); higher = more sensitive (stronger growth inhibition / cytotoxicity); extreme values may be limits of the assay

# compound, drug sensitivity score
rows = [
    ("Cc1[nH]c2ccccc2c1CCNCc1ccc(/C=C/C(=O)NO)cc1 [Panobinostat] (tested concentration range 0.1-1000 nM)", 7.7),
    ("COc1ccc(C[C@H](NC(=O)[C@H](C)NC(=O)CN2CCOCC2)C(=O)N[C@@H](Cc2ccccc2)C(=O)C2(C)CO2)cc1 (stereo in doubt) [ONX-0914] (tested concentration range 1-10000 nM)", 15.5),
    ("O=C(c1ccc(C(=O)N2CCC(N3CCCC3)CC2)c(Nc2ccccc2)c1)N1CCC(N2CCCC2)CC1 [UNC1215] (tested concentration range 1-10000 nM)", 0),
    ("COc1cc(Nc2ncc3c(n2)-c2ccc(Cl)cc2C(c2c(F)cccc2OC)=NC3)ccc1C(=O)O [Alisertib] (tested concentration range 1-10000 nM)", 3.3),
    ("NC(=O)/C(=C/n1cnc(-c2cc(C(F)(F)F)cc(C(F)(F)F)c2)n1)c1cncnc1 [Eltanexor] (tested concentration range 1-10000 nM)", 10.8),
    ("CNc1nc(-c2ccc3c(N)n[nH]c3c2)cc(N2C[C@@H](C(=O)NC3CCCCC3)CC[C@H]2C)n1 (tested concentration range 1-10000 nM)", 6.6),
]

###

- System: CAF#5
- protocolSummary: drug sensitivity score (DSS2, normalised partial AUC of dose-response, 72 h CellTiter-Glo viability) (DSS (dimensionless)); higher = more sensitive (stronger growth inhibition / cytotoxicity); extreme values may be limits of the assay
Label scheme for drug sensitivity score: lower than 0.9 is class 0, 0.9 and above is class 1.

# compound, answerLabel
records = [
    ("N#CCNC(=O)c1ccc(-c2ccnc(Nc3ccc(N4CCOCC4)cc3)n2)cc1 [Momelotinib] (tested concentration range 1-10000 nM)", "class 1"),
    ("C[C@H]1Oc2cc(cnc2N)-c2c(nn(C)c2C#N)CN(C)C(=O)c2ccc(F)cc21 [Lorlatinib] (tested concentration range 0.1-1000 nM)", "class 1"),
    ("COC(=O)c1ccc([C@H]2c3[nH]c4ccccc4c3C[C@H](C(=O)OC)N2C(=O)CCl)cc1 [RSL3] (tested concentration range 1-10000 nM)", "class 0"),
    ("C[C@@H]1CCN(C(=O)CC#N)C[C@@H]1N(C)c1ncnc2[nH]ccc12 [Tofacitinib] (tested concentration range 0.5-5000 nM)", "class 0"),
    ("Cc1ccc(Nc2nccc(N(C)c3ccc4c(C)n(C)nc4c3)n2)cc1S(N)(=O)=O [Pazopanib] (tested concentration range 1-10000 nM)", "class 1"),
    ("COCC1(CO)C(=O)C2CCN1CC2 (centres undefined) [Eprenetapopt] (tested concentration range 1-10000 nM)", "class 0"),
    ("CCC1=C[C@@H]2CN(C1)Cc1c([nH]c3ccccc13)[C@@](C(=O)OC)(c1cc3c(cc1OC)N(C)[C@H]1[C@@](O)(C(=O)OC)[C@H](OC(C)=O)[C@]4(CC)C=CCN5CC[C@]31[C@@H]54)C2 [Vinorelbine] (tested concentration range 1-10000 nM)", "class 1"),
    ("CNCc1ccc(-c2[nH]c3cc(F)cc4c3c2CCNC4=O)cc1 [Rucaparib] (tested concentration range 1-10000 nM)", "class 0"),
]

###

Catalogue of drug sensitivity score readings, one per entry.
- Tested on: CAF#5
- protocolSummary: drug sensitivity score (DSS2, normalised partial AUC of dose-response, 72 h CellTiter-Glo viability) (DSS (dimensionless)); higher = more sensitive (stronger growth inhibition / cytotoxicity); extreme values may be limits of the assay

# compound, drug sensitivity score
measured = [
    ("CN[C@@H](C)C(=O)N[C@H]1CN(C(=O)CC(C)C)CC[C@H]2CC[C@@H](C(=O)NC(c3ccccc3)c3ccccc3)N2C1=O [AT-406] (tested concentration range 1-10000 nM)", 0),
    ("Cc1cc(OCc2nnc(SC3CCCC3)n2-c2cccnc2)ccc1-c1ccc(S(C)(=O)=O)cc1 [NMS-873] (tested concentration range 1-10000 nM)", 5.6),
    ("CNC(=O)c1ccccc1Sc1ccc2c(/C=C/c3ccccn3)n[nH]c2c1 [Axitinib] (tested concentration range 1-10000 nM)", 2),
    ("O=C(O)C1(C(=O)O)CCC1.[NH2-].[NH2-].[Pt+2] [Carboplatin] (tested concentration range 10-100000 nM)", 5.5),
    ("Cn1nnc2c(C(N)=O)ncn2c1=O [Temozolomide] (tested concentration range 10-100000 nM)", 0),
]
